target: mouse melanocortin 4 receptor (mouse, UniProt P56450 1-332); assay: cell-based or functional assay
Sequence (P56450 whole entry): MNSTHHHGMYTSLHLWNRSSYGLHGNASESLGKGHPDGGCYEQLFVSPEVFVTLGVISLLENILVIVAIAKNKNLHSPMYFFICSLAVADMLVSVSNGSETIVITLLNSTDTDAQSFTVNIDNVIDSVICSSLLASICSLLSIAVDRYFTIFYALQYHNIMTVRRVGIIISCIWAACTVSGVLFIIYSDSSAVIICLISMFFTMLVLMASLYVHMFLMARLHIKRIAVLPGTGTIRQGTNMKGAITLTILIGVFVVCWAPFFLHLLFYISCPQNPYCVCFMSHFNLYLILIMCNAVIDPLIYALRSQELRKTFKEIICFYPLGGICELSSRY
Square brackets hold non-standard residues; d marks the D form. Nphe = O=C(O)CNCc1ccccc1
readout: pA2 (Schild analysis, agonist NDP-MSH, cAMP)

1. PRFFXAFP (head-to-tail cyclic; Dap at 5; NPhe (N-benzylglycine) at 7; DPro at 8) [MDE8-108-7c] : 6.6
2. cyclo(PRF[Nphe]NAF[dP]) [MDE9-88c] : 8.4
3. PRFFXAFP (head-to-tail cyclic; Dap at 5; NAla (N-methylglycine) at 6; DPro at 8) [MDE8-108-6c] : 6.1

Where do these numbers come from? They come from patent US20210179666A1.
